assay: Single dose pharmacokinetics of TH-302 after a 30-min intravenous infusion in rats; type: in vivo; settings: Sprague-Dawley, rat, plasma; female rats, 50 mg/kg, 30-min IV infusion
measured endpoint: clearance (mL/min/kg)
# number only, unit mL/min/kg dropped from output

Ask | clearance lookup needed for Cn1c(COP(=O)(NCCBr)NCCBr)cnc1[N+](=O)[O-] , thanks.
Reply | 115

----------
assay: Single dose pharmacokinetics of TH-302 after a 30-min intravenous infusion in rats; type: in vivo; conditions: Sprague-Dawley, rat, plasma; male rats, 50 mg/kg, 30-min IV infusion
measured endpoint: Tmax (min)
Your answer should be a plain number; it is taken to be in min.

Ask | # input compound: Cn1c(COP(=O)(NCCBr)NCCBr)cnc1[N+](=O)[O-] [TH-302] ; wanted: its Tmax
Reply | 31

----------
test: Single dose pharmacokinetics of TH-302 after a 30-min intravenous infusion in rats; type: in vivo; conditions: female, Sprague-Dawley, rat, plasma, iv, 50 mg/kg, female rats, 50 mg/kg, 30-min IV infusion; read-out: AUC
measured endpoint: AUC (ng·h/mL)
// note: answer is a bare numeric in ng·h/mL

Ask | Param item = Cn1c(COP(=O)(NCCBr)NCCBr)cnc1[N+](=O)[O-] ; retrieve measured AUC.
Reply | 7330

----------
experiment: Pharmacokinetics of TH-302 in rats after a single IV dose; type: in vivo, Sprague-Dawley rats; conditions: Sprague-Dawley, plasma, rat, 5 mg/kg, n = 2, mean ± S.D.
measured endpoint: Tmax (min)
# number only, unit min dropped from output

Ask | I'd like to know its Tmax. The molecule in question is Cn1c(COP(=O)(NCCBr)NCCBr)cnc1[N+](=O)[O-]
Reply | 1.98

----------
assay: Single dose pharmacokinetics of TH-302 after a 30-min intravenous infusion in rats; type: in vivo; details: Sprague-Dawley, rat, plasma; female rats, 50 mg/kg, 30-min IV infusion; read-out: Vss
measured endpoint: Vd (L/kg)
Supply the numeric figure in L/kg, leaving out any unit text.

Ask | Which Vd reading was recorded for the molecule Cn1c(COP(=O)(NCCBr)NCCBr)cnc1[N+](=O)[O-] ?
Reply | 2.81

----------
assay: Single dose pharmacokinetics of TH-302 after a 30-min intravenous infusion in rats; format: in vivo; conditions: Sprague-Dawley, rat, plasma; male rats, 100 mg/kg, 30-min IV infusion
measured endpoint: clearance (mL/min/kg)
Respond numerically; units are mL/min/kg and should not be typed.

Ask | Look at this compound and give its reported clearance. Cn1c(COP(=O)(NCCBr)NCCBr)cnc1[N+](=O)[O-]
Reply | 98.3

----------
assay: Single dose pharmacokinetics of TH-302 after a 30-min intravenous infusion in rats; type: in vivo; settings: male, Sprague-Dawley, rat, plasma, iv, 200 mg/kg, male rats, 200 mg/kg, 30-min IV infusion; read-out: Half-Life (converted)
measured endpoint: half-life (min)
# number only, unit min dropped from output

Ask | Quick one: half-life for Cn1c(COP(=O)(NCCBr)NCCBr)cnc1[N+](=O)[O-] ?
Reply | 19.4

----------
test: Single dose pharmacokinetics of TH-302 after a 30-min intravenous infusion in rats; type: in vivo; conditions: Sprague-Dawley, rat, plasma; male rats, 50 mg/kg, 30-min IV infusion; read-out: Vss
measured endpoint: Vd (L/kg)
The response must be a number in L/kg with no trailing unit.

Ask | So what's the measured Vd for this one? Cn1c(COP(=O)(NCCBr)NCCBr)cnc1[N+](=O)[O-] [TH-302]
Reply | 2.57

----------
assay: Single dose pharmacokinetics of TH-302 after a 30-min intravenous infusion in rats; type: in vivo; details: Sprague-Dawley, rat, plasma; female rats, 100 mg/kg, 30-min IV infusion; read-out: Vss
measured endpoint: Vd (L/kg)
Give the quantity in L/kg, number only.

Ask | Recorded Vd for Cn1c(COP(=O)(NCCBr)NCCBr)cnc1[N+](=O)[O-] , please?
Reply | 2.59

----------
assay: Single dose pharmacokinetics of TH-302 after a 30-min intravenous infusion in rats; type: in vivo; conditions: rat, plasma; female rats, 200 mg/kg, 30-min IV infusion
measured endpoint: Cmax (µg/mL)
Write it as a number; the unit µg/mL goes unstated.

Ask | # input molecule: Cn1c(COP(=O)(NCCBr)NCCBr)cnc1[N+](=O)[O-] ; wanted: its Cmax
Reply | 71.1

----------
assay: Single dose pharmacokinetics of TH-302 after a 30-min intravenous infusion in rats; format: in vivo; conditions: Sprague-Dawley, rat, plasma; female rats, 50 mg/kg, 30-min IV infusion
measured endpoint: Tmax (min)
Field format: number, assumed min, no unit text.

Ask | Any idea what its Tmax is? The compound is Cn1c(COP(=O)(NCCBr)NCCBr)cnc1[N+](=O)[O-]
Reply | 31

----------
assay: Single dose pharmacokinetics of TH-302 after a 30-min intravenous infusion in rats; type: in vivo; conditions: Sprague-Dawley, rat, plasma; male rats, 50 mg/kg, 30-min IV infusion
measured endpoint: clearance (mL/min/kg)
Provide the reading as a plain figure in mL/min/kg.

Ask | # clearance lookup, item Cn1c(COP(=O)(NCCBr)NCCBr)cnc1[N+](=O)[O-]
Reply | 104

----------
assay: Pharmacokinetics of TH-302 in rats after a single IV dose; format: in vivo, Sprague-Dawley rats; conditions: Sprague-Dawley, plasma, rat, 20 mg/kg, n = 3, mean ± S.D.
measured endpoint: Tmax
State the value with its unit after it.

Ask | Entry Cn1c(COP(=O)(NCCBr)NCCBr)cnc1[N+](=O)[O-] [TH-302] has what Tmax?
Reply | 1.98 min

----------
assay: Single dose pharmacokinetics of TH-302 after a 30-min intravenous infusion in rats; assay type: in vivo; details: Sprague-Dawley, rat, plasma; male rats, 200 mg/kg, 30-min IV infusion; read-out: Vss
measured endpoint: Vd (L/kg)
Only the number, expressed in L/kg, is required.

Ask | I am curious: what Vd value has been reported for Cn1c(COP(=O)(NCCBr)NCCBr)cnc1[N+](=O)[O-] ?
Reply | 2.51

----------
assay: Single dose pharmacokinetics of TH-302 after a 30-min intravenous infusion in rats; type: in vivo; conditions: rat, plasma; female rats, 200 mg/kg, 30-min IV infusion
measured endpoint: clearance (mL/min/kg)
Give the quantity in mL/min/kg, number only.

Ask | Could you tell me which clearance is on file for Cn1c(COP(=O)(NCCBr)NCCBr)cnc1[N+](=O)[O-] [TH-302] ?
Reply | 80.7

----------
Test: Pharmacokinetics of TH-302 in rats after a single oral (PO) dose
Type: in vivo, Sprague-Dawley rats
Settings: rat, plasma; male Sprague-Dawley rats, single oral dose 100 mg/kg; read-out: mean area under the curve (AUC)
Experimental: TH-302 (1-methyl-2-nitro-1H-imidazole-5-yl) N,N′-bis(2-bromoethyl) diamidophosphate, m.w.=449) that was about 96% pure based on high performance liquid chromatography (HPLC) analysis, was used. Male Sprague-Dawley rats (n=3 per time point) were administered a single oral dose of 100 mg/kg TH-302 (see, Table 1 and FIG. 1).
measured endpoint: AUC (ng·h/mL)
Use ng·h/mL as the unit, but write only the number.

Ask | What value of AUC has been recorded for this entry: Cn1c(COP(=O)(NCCBr)NCCBr)cnc1[N+](=O)[O-]
Reply | 13100

----------
test: Single dose pharmacokinetics of TH-302 after a 30-min intravenous infusion in rats; format: in vivo; settings: Sprague-Dawley, rat, plasma; male rats, 200 mg/kg, 30-min IV infusion
measured endpoint: Cmax
Mention the unit after the number when you answer.

Ask | Query: Cmax; subject: Cn1c(COP(=O)(NCCBr)NCCBr)cnc1[N+](=O)[O-]
Reply | 62.5 µg/mL

----------
assay: Single dose pharmacokinetics of TH-302 after a 30-min intravenous infusion in rats; assay type: in vivo; details: Sprague-Dawley, rat, plasma; male rats, 100 mg/kg, 30-min IV infusion; read-out: Vss
measured endpoint: Vd
Show the value, then the unit it is measured in.

Ask | Report Vd for Cn1c(COP(=O)(NCCBr)NCCBr)cnc1[N+](=O)[O-] please.
Reply | 2.59 L/kg

----------
test: Single dose pharmacokinetics of TH-302 after a 30-min intravenous infusion in rats; format: in vivo; details: Sprague-Dawley, rat, plasma; male rats, 100 mg/kg, 30-min IV infusion
measured endpoint: Tmax (min)
# number only, unit min dropped from output

Ask | What value of measured Tmax is listed for Cn1c(COP(=O)(NCCBr)NCCBr)cnc1[N+](=O)[O-] ?
Reply | 33

----------
assay: Single dose pharmacokinetics of TH-302 after a 30-min intravenous infusion in rats; type: in vivo; conditions: male, Sprague-Dawley, rat, plasma, iv, 100 mg/kg, male rats, 100 mg/kg, 30-min IV infusion; read-out: AUC
measured endpoint: AUC

Ask | What does the data say about its AUC? Entry: Cn1c(COP(=O)(NCCBr)NCCBr)cnc1[N+](=O)[O-] [TH-302]
Reply | 17100 ng·h/mL

----------
assay: Single dose pharmacokinetics of TH-302 after a 30-min intravenous infusion in rats; assay type: in vivo; details: Sprague-Dawley, rat, plasma; male rats, 50 mg/kg, 30-min IV infusion
measured endpoint: Cmax (ng/mL)
Please reply with the bare figure in ng/mL and do not write the unit itself.

Ask | Need Cmax of Cn1c(COP(=O)(NCCBr)NCCBr)cnc1[N+](=O)[O-] , thanks.
Reply | 15600

Measured values drawn from patent US20140072624A1 for this set.
